system: HuH-7 hepatocellular carcinoma cells; assay: Methylene blue staining proliferation assay (MBS); type: cell-based; settings: Homo sapiens, HuH-7 cells, 72 hours, read-out: HUH7 proliferation MBS
MEASURE: pIC50
Reminder that pIC50 means the negative base-10 logarithm of the concentration expressed in mol/L.

Would you please look over these solved cases?
{"SUBSTANCE_SMILES": "COCCNc1cc(NC(=O)N(C)c2ccc(C(F)F)c(C=O)n2)ncc1C#N", "pIC50": 7.29}
{"SUBSTANCE_SMILES": "CCN(C(=O)Nc1cc(NCCOC)c(C#N)cn1)c1ccc(-c2cnn(C)c2)c(C=O)n1", "pIC50": 5.96}
{"SUBSTANCE_SMILES": "COCCNc1cc(NC(=O)N(C)c2ccc(CN(C)C(C)=O)c(C=O)n2)ncc1C#N", "pIC50": 7.60}

Now take the following molecule into account.
Quick note, pIC50 for CC(C)Oc1cc(NC(=O)N(C)c2ccc(C(F)F)c(C=O)n2)ncc1C#N landed at 6.72

----------
target: BaF3-Tel-FGFR4 cells (TEL fused to cytoplasmic domain of FGFR4) (Homo sapiens); assay: In vitro cellular kinase assay for FGFR4 (BaF3-Tel-FGFR4, MSD capture ELISA of tyrosine phosphorylation); conditions: 1 hour incubation
MEASURE: pIC50
Reminder that pIC50 means the negative base-10 logarithm of the concentration expressed in mol/L.

Would you please look over these solved cases?
{"COMPOUND": "CC(C)Oc1cc(NC(=O)N(C)c2ccc(C(=O)O)c(C=O)n2)ncc1C#N [Example 8]", "SYSTEM_TESTED": "BaF3-Tel-FGFR4 cells (TEL fused to cytoplasmic domain of FGFR4) (Homo sapiens)", "pIC50": 6.13}
{"COMPOUND": "CCN(C(=O)Nc1cc(OC(C)C)c(C#N)cn1)c1ccc(-c2cnn(C)c2)c(C=O)n1 [Example 12]", "SYSTEM_TESTED": "BaF3-Tel-FGFR4 cells (TEL fused to cytoplasmic domain of FGFR4) (Homo sapiens)", "pIC50": 7.48}

Now take the following compound into account.
Quick note, pIC50 for CC(C)Oc1cc(NC(=O)N(C)c2ccc(CN3CCCC3=O)c(C=O)n2)ncc1C#N [Example 23] landed at 8.06

----------
target: FGFR4 (GST-FGFR4(388-802)) (Homo sapiens, UniProt P22455)
Sequence (P22455 388-802): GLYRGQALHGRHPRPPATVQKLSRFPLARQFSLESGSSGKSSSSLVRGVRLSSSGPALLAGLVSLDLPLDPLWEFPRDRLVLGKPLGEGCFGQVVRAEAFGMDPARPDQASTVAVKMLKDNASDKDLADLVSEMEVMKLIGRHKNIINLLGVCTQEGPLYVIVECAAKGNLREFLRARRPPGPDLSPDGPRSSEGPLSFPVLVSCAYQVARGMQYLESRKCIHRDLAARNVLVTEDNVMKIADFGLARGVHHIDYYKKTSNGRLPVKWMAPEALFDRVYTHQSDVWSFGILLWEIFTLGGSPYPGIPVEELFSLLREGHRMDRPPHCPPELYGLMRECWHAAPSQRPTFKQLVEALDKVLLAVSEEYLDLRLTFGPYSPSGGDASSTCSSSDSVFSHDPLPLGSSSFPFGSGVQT
Note to self: use t only for IC50 readings below 20 nM; a reading exactly at 20 nM still gets f.

Take a look at these entries with their results.
{"COMPOUND": "N#Cc1ccc(Nc2ccccc2-c2cccc(C=O)n2)nc1 [Example 1]", "LABEL_VALUE": "f"}
{"COMPOUND": "COCCNc1cc(NC(=O)N(C)c2ccc(C(=O)O)c(C=O)n2)ncc1C#N [Example 9]", "LABEL_VALUE": "t"}
{"COMPOUND": "CC(C)Oc1cc(NC(=O)N(C)c2ccc(CN3CCN(C)CC3=O)c(C=O)n2)ncc1C#N [Example 21]", "LABEL_VALUE": "t"}

Continue with the next compound.
[Q] Is it true that IC50 reported for CC(C)Oc1cc(NC(=O)N(C)c2ccc(CN3CCCC3)c(C=O)n2)ncc1C#N [Example 29] is less than 20 nM?
[A] f

----------
// values below are reported pIC50
target: BaF3-Tel-FGFR4 cells (TEL fused to cytoplasmic domain of FGFR4) (Homo sapiens, UniProt P22455); assay: In vitro cellular kinase assay for FGFR4 (BaF3-Tel-FGFR4, MSD capture ELISA of tyrosine phosphorylation); conditions: 1 hour incubation
Sequence (P22455 with tags, fused parts or gaps): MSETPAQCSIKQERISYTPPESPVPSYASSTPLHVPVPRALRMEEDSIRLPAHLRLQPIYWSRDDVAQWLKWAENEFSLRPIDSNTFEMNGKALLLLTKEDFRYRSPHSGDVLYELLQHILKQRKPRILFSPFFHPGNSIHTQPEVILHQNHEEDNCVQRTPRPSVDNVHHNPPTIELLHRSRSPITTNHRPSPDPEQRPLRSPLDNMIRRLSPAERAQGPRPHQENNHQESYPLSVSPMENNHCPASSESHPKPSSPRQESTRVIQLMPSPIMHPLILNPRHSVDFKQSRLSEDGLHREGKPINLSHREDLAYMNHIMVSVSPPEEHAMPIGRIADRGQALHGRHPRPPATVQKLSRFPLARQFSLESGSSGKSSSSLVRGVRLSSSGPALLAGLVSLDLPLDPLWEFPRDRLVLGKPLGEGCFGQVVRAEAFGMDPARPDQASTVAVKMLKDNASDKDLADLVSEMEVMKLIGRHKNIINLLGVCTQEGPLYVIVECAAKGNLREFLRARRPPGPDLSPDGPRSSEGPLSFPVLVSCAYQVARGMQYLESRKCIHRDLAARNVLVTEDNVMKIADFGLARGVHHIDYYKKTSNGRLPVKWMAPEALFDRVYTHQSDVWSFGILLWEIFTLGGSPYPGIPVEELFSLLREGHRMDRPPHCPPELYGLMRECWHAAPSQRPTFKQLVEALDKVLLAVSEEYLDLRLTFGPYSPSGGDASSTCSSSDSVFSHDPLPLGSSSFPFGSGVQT
Reminder that pIC50 means the negative base-10 logarithm of the concentration expressed in mol/L.

{"COMPOUND": "COCCNc1cc(NC(=O)N(CC2CCOC2)c2cccc(C=O)n2)ncc1C#N (racemic) [Example 4]", "MEASURE": "pIC50", "ASSAY_RESULT": 6.57}

Quick note, pIC50 for COCCNc1cc(NC(=O)N(C[C@H]2CCOC2)c2cccc(C=O)n2)ncc1C#N (single isomer, unassigned) [Example 7] landed at 6.65

Quick note, pIC50 for COCCNc1cc(Nc2ccnn2-c2ccc(-c3cnn(C)c3)c(C=O)n2)ncc1C(F)(F)F [Example 28] landed at 5.58

Quick note, pIC50 for CC(C)Oc1cc(NC(=O)N(C)c2ccc(C(F)F)c(C=O)n2)ncc1C#N [Example 18] landed at 7.60

----------
Quick record of pIC50 values for FGFR4 (GST-FGFR4(388-802)) (Homo sapiens).
Reminder that pIC50 means the negative base-10 logarithm of the concentration expressed in mol/L.

Would you please look over these solved cases?
{"MOLECULE": "COC1CCN(Cc2ccc(N(C)C(=O)Nc3cc(OC(C)C)c(C#N)cn3)nc2C=O)C1 (racemic) [Example 26]", "SYSTEM_TESTED": "FGFR4 (GST-FGFR4(388-802)) (Homo sapiens)", "pIC50": 7.77}
{"MOLECULE": "COCCNc1cc(Nc2nccn2-c2ccc(-c3cnn(C)c3)c(C=O)n2)ncc1C(F)(F)F [Example 27]", "SYSTEM_TESTED": "FGFR4 (GST-FGFR4(388-802)) (Homo sapiens)", "pIC50": 6.47}

Now take the following molecule into account.
Tested system FGFR4 (GST-FGFR4(388-802)) (Homo sapiens); pIC50 recorded for CC(C)Oc1cc(NC(=O)N(C)c2ccc(-c3cnn(C)c3)c(C=O)n2)ncc1C#N [Example 25] was 8.20
